Consider the following binders; for each one, report its MFI.
Biological target: T1, human CD28, full-length, expressed on transfected Expi293 cells (human, UniProt P10747 19-220)
T1 construct: whole, on cells
Assay: flow cytometry, 100 nM, Expi293 cells with human CD28
Numbers only here, please. The scale is MFI.

I'd like to know its MFI. The binder in question is variant ICOSL IgV-Fc fusion N52R/N57Y/Q100R (Fc fusion) DTQEKEVRAMVGSDVELSCACPEGSRFDLNDVYVYWQTSESKTVVTYHIPQRSSLEYVDSRYRNRALMSPAGMLRGDFSLRLFNVTPQDEQKFHCLVLSRSLGFQEVLSVEVTLHVAANFSVGSGGGGSEPKSSDKTHTCPPCPAPEAEGAPSVFLFPPKPKDTLMISRTPEVTCVVVDVSHEDPEVKFNWYVDGVEVHNAKTKPREEQYNSTYRVVSVLTVLHQDWLNGKEYKCKVSNKALPAPIEKTISKAKGQPREPQVYTLPPSREEMTKNQVSLTCLVKGFYPSDIAVEWESNGQPENNYKTTPPVLDSDGSFFLYSKLTVDKSRWQQGNVFSCSVMHEALHNHYTQKSLSLSPG
3280

Try the binder variant ICOSL IgV-Fc fusion N52H/N57Y/Q100R (Fc fusion, not shown: a dimerising Fc or GST) DTQEKEVRAMVGSDVELSCACPEGSRFDLNDVYVYWQTSESKTVVTYHIPQHSSLEYVDSRYRNRALMSPAGMLRGDFSLRLFNVTPQDEQKFHCLVLSRSLGFQEVLSVEVTLHVAANFSV
142000

What do you have for variant ICOSL IgV-Fc fusion N52P/N57P (Fc fusion) DTQEKEVRAMVGSDVELSCACPEGSRFDLNDVYVYWQTSESKTVVTYHIPQPSSLEPVDSRYRNRALMSPAGMLRGDFSLRLFNVTPQDEQKFHCLVLSQSLGFQEVLSVEVTLHVAANFSVGSGGGGSEPKSSDKTHTCPPCPAPEAEGAPSVFLFPPKPKDTLMISRTPEVTCVVVDVSHEDPEVKFNWYVDGVEVHNAKTKPREEQYNSTYRVVSVLTVLHQDWLNGKEYKCKVSNKALPAPIEKTISKAKGQPREPQVYTLPPSREEMTKNQVSLTCLVKGFYPSDIAVEWESNGQPENNYKTTPPVLDSDGSFFLYSKLTVDKSRWQQGNVFSCSVMHEALHNHYTQKSLSLSPG ?
21000

Another binder to check: variant ICOSL IgV-Fc fusion N52M/N57H/Q100S (Fc fusion) DTQEKEVRAMVGSDVELSCACPEGSRFDLNDVYVYWQTSESKTVVTYHIPQMSSLEHVDSRYRNRALMSPAGMLRGDFSLRLFNVTPQDEQKFHCLVLSSSLGFQEVLSVEVTLHVAANFSVGSGGGGSEPKSSDKTHTCPPCPAPEAEGAPSVFLFPPKPKDTLMISRTPEVTCVVVDVSHEDPEVKFNWYVDGVEVHNAKTKPREEQYNSTYRVVSVLTVLHQDWLNGKEYKCKVSNKALPAPIEKTISKAKGQPREPQVYTLPPSREEMTKNQVSLTCLVKGFYPSDIAVEWESNGQPENNYKTTPPVLDSDGSFFLYSKLTVDKSRWQQGNVFSCSVMHEALHNHYTQKSLSLSPG
115000

And what about the binder variant ICOSL IgV-Fc fusion N52S/N57A/Q100A (Fc fusion) DTQEKEVRAMVGSDVELSCACPEGSRFDLNDVYVYWQTSESKTVVTYHIPQSSSLEAVDSRYRNRALMSPAGMLRGDFSLRLFNVTPQDEQKFHCLVLSASLGFQEVLSVEVTLHVAANFSVGSGGGGSEPKSSDKTHTCPPCPAPEAEGAPSVFLFPPKPKDTLMISRTPEVTCVVVDVSHEDPEVKFNWYVDGVEVHNAKTKPREEQYNSTYRVVSVLTVLHQDWLNGKEYKCKVSNKALPAPIEKTISKAKGQPREPQVYTLPPSREEMTKNQVSLTCLVKGFYPSDIAVEWESNGQPENNYKTTPPVLDSDGSFFLYSKLTVDKSRWQQGNVFSCSVMHEALHNHYTQKSLSLSPG ?
98200

# iterate: variant ICOSL IgV-Fc fusion N52S/N57Y/Q100M (Fc fusion) DTQEKEVRAMVGSDVELSCACPEGSRFDLNDVYVYWQTSESKTVVTYHIPQSSSLEYVDSRYRNRALMSPAGMLRGDFSLRLFNVTPQDEQKFHCLVLSMSLGFQEVLSVEVTLHVAANFSVGSGGGGSEPKSSDKTHTCPPCPAPEAEGAPSVFLFPPKPKDTLMISRTPEVTCVVVDVSHEDPEVKFNWYVDGVEVHNAKTKPREEQYNSTYRVVSVLTVLHQDWLNGKEYKCKVSNKALPAPIEKTISKAKGQPREPQVYTLPPSREEMTKNQVSLTCLVKGFYPSDIAVEWESNGQPENNYKTTPPVLDSDGSFFLYSKLTVDKSRWQQGNVFSCSVMHEALHNHYTQKSLSLSPG
157000

Ok, now variant ICOSL IgV-Fc fusion N52S/N57L/Q100S (Fc fusion) DTQEKEVRAMVGSDVELSCACPEGSRFDLNDVYVYWQTSESKTVVTYHIPQSSSLELVDSRYRNRALMSPAGMLRGDFSLRLFNVTPQDEQKFHCLVLSSSLGFQEVLSVEVTLHVAANFSVGSGGGGSEPKSSDKTHTCPPCPAPEAEGAPSVFLFPPKPKDTLMISRTPEVTCVVVDVSHEDPEVKFNWYVDGVEVHNAKTKPREEQYNSTYRVVSVLTVLHQDWLNGKEYKCKVSNKALPAPIEKTISKAKGQPREPQVYTLPPSREEMTKNQVSLTCLVKGFYPSDIAVEWESNGQPENNYKTTPPVLDSDGSFFLYSKLTVDKSRWQQGNVFSCSVMHEALHNHYTQKSLSLSPG
108000

Further, for variant ICOSL IgV-Fc fusion N52R/N57F/Q100P (Fc fusion) DTQEKEVRAMVGSDVELSCACPEGSRFDLNDVYVYWQTSESKTVVTYHIPQRSSLEFVDSRYRNRALMSPAGMLRGDFSLRLFNVTPQDEQKFHCLVLSPSLGFQEVLSVEVTLHVAANFSVGSGGGGSEPKSSDKTHTCPPCPAPEAEGAPSVFLFPPKPKDTLMISRTPEVTCVVVDVSHEDPEVKFNWYVDGVEVHNAKTKPREEQYNSTYRVVSVLTVLHQDWLNGKEYKCKVSNKALPAPIEKTISKAKGQPREPQVYTLPPSREEMTKNQVSLTCLVKGFYPSDIAVEWESNGQPENNYKTTPPVLDSDGSFFLYSKLTVDKSRWQQGNVFSCSVMHEALHNHYTQKSLSLSPG ?
154000

Value source: patent US20230235012A1
